# Tested on: 556581-035-R-J1-PDC spheroids with HUVEC/MSC, viability;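 note: spheroids exposed to compounds for 7 days before readout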
# Method Notes: Anticancer human tumor 556581-035-R-J1-PDC patient-derived ovarian carcinoma cell line growth inhibition [IpAb]
# Conditions Used: second compound 10 µM; first compound 0.1 µM; stronger effect = lower value
# viability, T/C annotations
Quantity Name: viability, T/C

* CCCS(=O)(=O)Nc1ccc(F)c(C(=O)c2c[nH]c3ncc(-c4ccc(Cl)cc4)cc23)c1F + CC(C)NCC(C(=O)N1CCN(c2ncnc3c2C(C)CC3O)CC1)c1ccc(Cl)cc1 | 46.7%
* CC1(C)CCC(CN2CCN(c3ccc(C(=O)NS(=O)(=O)c4ccc(NCC5CCOCC5)c([N+](=O)[O-])c4)c(Oc4cnc5[nH]ccc5c4)c3)CC2)=C(c2ccc(Cl)cc2)C1 + CC(C)NCC(C(=O)N1CCN(c2ncnc3c2C(C)CC3O)CC1)c1ccc(Cl)cc1 | 44.6%
* Cc1nc(NC(=O)N2CCCC2C(N)=O)sc1-c1ccnc(C(C)(C)C(F)(F)F)c1 (stereo not given) + CC(C)NCC(C(=O)N1CCN(c2ncnc3c2C(C)CC3O)CC1)c1ccc(Cl)cc1 | 42.4%
* CC(C)n1nc(-c2ccc3oc(N)nc3c2)c2c(N)ncnc21 + CC(C)NCC(C(=O)N1CCN(c2ncnc3c2C(C)CC3O)CC1)c1ccc(Cl)cc1 | 16.4%
* C=CC(=O)N1CCN(c2nc(=O)n(-c3c(C)ccnc3C(C)C)c3nc(-c4c(O)cccc4F)c(F)cc23)C(C)C1 (stereo not given) + CC(C)NCC(C(=O)N1CCN(c2ncnc3c2C(C)CC3O)CC1)c1ccc(Cl)cc1 | 48.2%
